Biological target: Aromatase (Homo sapiens)
Sequence (P11511 whole entry): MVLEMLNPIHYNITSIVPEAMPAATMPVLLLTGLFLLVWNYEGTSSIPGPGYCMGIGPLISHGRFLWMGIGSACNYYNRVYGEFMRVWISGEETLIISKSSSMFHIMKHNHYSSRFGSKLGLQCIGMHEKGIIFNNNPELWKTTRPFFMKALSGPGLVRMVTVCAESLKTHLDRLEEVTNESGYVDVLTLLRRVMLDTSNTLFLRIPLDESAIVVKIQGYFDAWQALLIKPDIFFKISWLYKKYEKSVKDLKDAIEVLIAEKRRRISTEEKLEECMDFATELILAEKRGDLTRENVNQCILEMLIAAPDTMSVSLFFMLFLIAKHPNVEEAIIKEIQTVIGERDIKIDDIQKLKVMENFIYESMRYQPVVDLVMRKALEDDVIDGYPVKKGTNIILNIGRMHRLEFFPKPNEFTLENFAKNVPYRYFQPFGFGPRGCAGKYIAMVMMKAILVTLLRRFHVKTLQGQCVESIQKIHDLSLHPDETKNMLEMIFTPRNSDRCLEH
pIC50: −log10 of the molar value.
Metric name: pIC50

O=c1c2ccccc2sc2c(Cn3ccnc3)cccc12    8.40

A: O=[N+]([O-])c1ccc(Cn2ccnc2)c(Sc2ccccc2)c1
B: O=c1c2ccccc2sc2c(Cn3ccnc3)ccc([N+](=O)[O-])c12
C: O=c1c2ccccc2oc2c(Cn3ccnc3)c([N+](=O)[O-])ccc12
Rank the items in ascending order with respect to pIC50. Answer with the labels in sequence, matching the requested order.
C, B, A
(C: 5.72, B: 7.78, A: 8.25)

* * *

Molecular target: Steroid 17-alpha-hydroxylase/17,20 lyase (Homo sapiens)
Sequence (P05093 whole entry): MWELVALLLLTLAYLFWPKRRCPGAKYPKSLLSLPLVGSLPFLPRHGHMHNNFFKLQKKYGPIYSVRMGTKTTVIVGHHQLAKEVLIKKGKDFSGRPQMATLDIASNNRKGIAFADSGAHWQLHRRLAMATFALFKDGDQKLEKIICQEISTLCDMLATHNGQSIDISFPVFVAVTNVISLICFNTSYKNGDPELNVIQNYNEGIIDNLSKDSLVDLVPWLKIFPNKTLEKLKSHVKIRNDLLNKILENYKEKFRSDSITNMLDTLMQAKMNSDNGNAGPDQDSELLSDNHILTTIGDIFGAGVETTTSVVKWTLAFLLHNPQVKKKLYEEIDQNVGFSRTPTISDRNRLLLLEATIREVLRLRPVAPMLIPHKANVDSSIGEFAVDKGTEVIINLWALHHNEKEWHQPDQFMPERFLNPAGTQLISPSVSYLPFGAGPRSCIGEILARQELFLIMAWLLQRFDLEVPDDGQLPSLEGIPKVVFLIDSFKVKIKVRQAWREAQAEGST
Metric name: IC50 (nM)
# number only, unit nM dropped from output

Tested system Steroid 17-alpha-hydroxylase/17,20 lyase (Homo sapiens); IC50 recorded for O=c1c2ccccc2oc2cccc(Cn3ccnc3)c12 was 880

* * *

Molecular target: Steroid 17-alpha-hydroxylase/17,20 lyase (Homo sapiens, UniProt P05093)
Test: Inhibition of human CYP17 expressed in Escherichia coli at 2.5 uM
Metric name: inhibition at 2.5 µM (%)

c1ccc(Oc2ccccc2Cn2ccnc2)cc1    8
O=c1c2ccccc2sc2c(Cn3ccnc3)ccc([N+](=O)[O-])c12    5

I: O=c1c2ccccc2sc2c(Cn3ccnc3)cccc12
II: O=c1c2ccccc2oc2ccc(Cn3ccnc3)cc12
# returns the entry with the larger inhibition at 2.5 µM; inputs I and II Which one? Tell me its label.
I

I: O=c1c2ccccc2oc2c(Cn3ccnc3)c([N+](=O)[O-])ccc12
II: O=[N+]([O-])c1ccc(Cn2ccnc2)c(Sc2ccccc2)c1
Hey, between I and II which has a smaller measured inhibition at 2.5 µM? Lab note: record the label of whichever item you select.
I
(I: 9%, II: 17%)
